Tested on: CCRF-CEM
Protocol Details: NCI tumour cell line growth inhibition, 48 h
Calls of active or inactive are those of the source. Rule as the data show it: active = GI50 up to about 1.1 µM and inactive = higher.
One label from this list, please: 1 (yes) = active, 0 (no) = inactive

Known results for compounds:
{"columns": ["Structure", "Experimental System", "Assigned Class"],
 "data": [
  ["CN(C)c1ccc(/C=C(/C(=O)O)c2csc(-c3nc(/C(=C\\c4ccc(N(C)C)cc4)C(=O)O)cs3)n2)cc1", "CCRF-CEM", "0 (no)"],
  ["Cn1c(=O)c2c(-c3ccccc3)onc2n(C)c1=O", "CCRF-CEM", "0 (no)"]
]}

# input Could you please tell me the result logged for Cc1cccc2c(N)c3cccc(C(=O)NCCN4CCOCC4)c3nc12 in this assay?
# output 1 (yes)

# input Also need CCOC(=O)c1csc(NC(=O)CN2CCN(c3ccccc3)CC2)n1 , thanks.
# output 0 (no)

# input Same again, this time with Cn1ccnc1C(c1nccn1C)C(C)(C)[N+](=O)[O-]
# output 0 (no)

###

Tested on: COLO 205
Protocol Details: NCI tumour cell line growth inhibition, 48 h
Activity calls are given as the source filed them. No stated cut-off is given here; in the data, active = GI50 up to about 1.1 µM and inactive = higher.
Choose the fitting class; nothing outside true for active, false for inactive is accepted.

{"columns": ["Compound", "Experimental System", "Assigned Class"],
 "data": [
  ["CC(=O)Nc1ccccc1S(=O)(=O)c1ccccc1", "COLO 205", "false"]
]}

# input GET /call?item= CCN(CC)C(=S)SC1CCOP(=O)(N(CCCl)CCCl)N1C (stereo unspecified) returns the recorded outcome of this test.
# output true

# input Try Cn1ncc2c(Nc3ccc(Cl)cc3)c3ccccc3nc21 next.
# output false

# input And what about the compound CC1=C(C(=O)CC(=O)C(=O)Nc2ccc(Cl)cc2C)Sc2ccccc2N1 ?
# output false

###

System: UACC-62
Protocol Details: NCI tumour cell line growth inhibition, 48 h
Active and inactive are the calls of the source. Rule as the data show it: active = GI50 up to about 1.1 µM and inactive = higher.
Experimental Readout: GI50

Here's what some known entries look like.
{"columns": ["Compound", "Experimental System", "Experimental Readout", "Result"],
 "data": [
  ["COc1ccc(/C=C(\\NC(=O)c2ccccc2)c2nc3ccccc3[nH]2)cc1OC", "UACC-62", "GI50", "> 100 µM (inactive)"],
  ["N#CCCN(CCC#N)c1ccc(/C=C(/NC(=O)Nc2ccccc2Cl)NC(=O)c2cc([N+](=O)[O-])ccc2Cl)cc1", "UACC-62", "GI50", "57.8 µM (inactive)"],
  ["CCCCP(CCCC)(CCCC)=C(C(=O)OC)C(C(=O)OC)=C1SC(C(=O)OC)=C(C(=O)OC)S1", "UACC-62", "GI50", "14.1 µM (inactive)"],
  ["Cc1ccccc1NC(=O)C(=O)CC(=O)C1CCOC1=O (stereo not given)", "UACC-62", "GI50", "> 100 µM (inactive)"]
]}

# input Any idea what its GI50 is? The compound is O=C1OCC/C1=N/O
# output > 100 µM (inactive)

# input Also, Cc1cccc(C(C)C)c1NC(=O)C(=O)C(C(=O)c1ccccc1F)C1OC(=O)c2ccccc21 (stereo not given) please.
# output 10.4 µM (inactive)

# input For COc1ccc(Nc2nc3ccc(C(F)(F)F)cc3nc2-c2ccccc2)cc1OC then?
# output 66.8 µM (inactive)

# input Record: O=c1n(-c2ccccc2)c(=O)n2n1C1C=CC2C2C(C1)C2(Cl)Cl (stereo not given)
# output > 100 µM (inactive)

# input # repeat for COc1ccc(NC(C(N)=O)c2cc3cc(Br)ccc3nc2Cl)cc1 (stereo not given)
# output 52.7 µM (inactive)

# input Another compound to check: Cc1ccc(NC(=O)CSC(N)=O)cc1C
# output 93.8 µM (inactive)

###

Tested on: EKVX
Protocol Details: NCI tumour cell line growth inhibition, 48 h
Calls of active or inactive are those of the source. Cut-off read from the data, not from the text of the source: active = GI50 up to about 1.1 µM and inactive = higher.
Form entry, call: pick from Yes = active, No = inactive

{"columns": ["Molecule", "Assigned Class"],
 "data": [
  ["CC(C)c1nc2c(Cl)c3ncccc3cc2[nH]c1=O", "No"],
  ["COc1ccc(/C=C/C(=O)c2cccc(C(=O)/C=C/c3ccc(OC)c(OC)c3)n2)cc1OC", "No"]
]}

# input Any idea what this test logged for Cn1c2ccc3cc2c(=S)c2cc(ccc21)OCCOCCOCCOCCOCCO3 ?
# output No

# input Next: CCN(CC)CC(O)c1ccc2ccc3ccccc3c2c1 (stereo not given)
# output No

# input Okay, and CCCC[C@H]1C(=O)O[C@H](C)[C@H](NC(=O)c2cccc(NC=O)c2O)C(=O)O[C@@H](C)[C@@H]1OC(=O)CC(C)C [ANTIMYCIN A3] ?
# output Yes

###

Test system: KM12
Protocol Details: NCI tumour cell line growth inhibition, 48 h
Calls of active or inactive are those of the source. Rule as the data show it: active = GI50 up to about 1.1 µM and inactive = higher. Where a SMILES comes first, the peptide text is derived from it. [ ]: non-standard residue; d: D form. The star is where a group is joined. ξ: configuration not given here. Propanoyl(3-(4-MeO-Ph)) = COc1ccc(CCC(=O)*)cc1; Thr(3ξ) = CC(O)[C@H](N)C(=O)O; dNMeL = CN[C@H](CC(C)C)C(=O)O; OBn = c1ccc(CO*)cc1; ξLac = CC(O)C(=O)O
Experimental Readout: GI50

{"columns": ["Molecule", "Experimental Readout", "Result"],
 "data": [
  ["N#CC1(Nc2ccc(-c3ccc(NC4(C#N)CCCC4)cc3)cc2)CCCC1", "GI50", "> 100 µM (inactive)"],
  ["CCCCCC(/C=N/N)C(O)(C(F)(F)F)C(F)(F)F (centres undefined)", "GI50", "4.44 µM (inactive)"],
  ["COc1cc(CNc2cnc3ccc(N)cc3n2)cc(OC)c1OC", "GI50", "> 100 µM (inactive)"]
]}

Field: next molecule
# input Quick check: GI50 of COc1ccc(CCC(=O)OC(C)[C@H](NC(=O)[C@@H](CC(C)C)N(C)C(=O)[C@@H]2CCCN2C(=O)C(C)O)C(=O)OCc2ccccc2)cc1 (some centres undefined) (H-[ξLac]P[dNMeL][Thr(3ξ)](Propanoyl(3-(4-MeO-Ph)))-OBn) ?
# output 27.9 µM (inactive)

###

System: M19-MEL
Protocol Details: NCI tumour cell line growth inhibition, 48 h
The source made the active and inactive calls. Cut-off read from the data, not from the text of the source: active = GI50 up to about 1.1 µM and inactive = higher.
Log the outcome using a class from active, inactive

{"columns": ["Molecule", "Assigned Class"],
 "data": [
  ["CN(C)CCNC(=O)c1cccc2[nH]c(-c3cccnc3)nc12", "inactive"],
  ["Cc1cccc(C(C)C)c1NC(=O)C(=O)C(C(=O)c1ccccc1F)C1OC(=O)c2ccccc21 (centres undefined)", "inactive"],
  ["O=c1c2cc(Br)ccc2[nH]c(=S)n1-c1ccccc1", "inactive"],
  ["CSC[S+]([O-])C[C@H](CO)NC(=O)/C=C/c1c(C)[nH]c(=O)[nH]c1=O (some centres undefined)", "active"]
]}

# input Which outcome was assigned to C/C=C(\N=C=S)C(=O)OC1C(COC(C)=O)OC([C@]2(O)CC(=O)C(N)=C(C(=O)O)C2=O)C(O)C1OC1CC(OC)C(O)([C@@H](C)OC(=O)[C@@H](C)CC)C(C)O1 (some centres undefined) in this test?
# output inactive

# input Field entry: CC(C)(C)N/N=C(\C(=O)Nc1cccc(Cl)c1)C1C(=O)Nc2ccccc2[S+]1[O-] (centres undefined)
# output inactive

# input // next record CCOC(=O)COc1ccc(OC)c2c1C(=O)CCC2
# output inactive

# input Try this molecule next: C=C(C)C(=O)/N=C(\N)NC#N
# output inactive

# input Continue with CC(C)(C)/N=C\N(C=C(c1ccccc1)c1ccccc1)C1CCCCC1
# output inactive

# input Now the molecule O=C(Cc1nc2ccccc2s1)NC12CC3CC(CC(C3)C1)C2
# output inactive

# input Next entry: CNS(=O)(=O)NN(C)S(=O)(=O)c1ccccc1
# output inactive

# input Entry Cc1cc(NC(=O)NC(=O)c2ccccc2NC(=O)C(C)N)ccc1Oc1ncc(Br)cn1 (centres undefined) please
# output active

# input Next entry: CCN(CC)CCNc1ccc2ncn3c4cc(O)ccc4c(=O)c1c23
# output inactive

# input Same question for CC(C)=CC(=O)CC(=O)C(=O)Nc1ccc(Cl)c(Cl)c1 please.
# output inactive

###

Each entry below carries its reported GI50.
Test system: Hs-578T
Protocol Details: NCI tumour cell line growth inhibition, 48 h
Activity calls are given as the source filed them. Rule as the data show it: active = GI50 up to about 1.1 µM and inactive = higher.

Below, 3 molecules whose answers are already recorded.
{"columns": ["Molecule", "Experimental System", "Result"],
 "data": [
  ["Cc1ccc(NC(c2ccccc2)c2ccc3cccnc3c2O)cc1 (centres undefined)", "Hs-578T", "9.02 µM (inactive)"],
  ["CN(C)CCCNC(=O)N/N=C\\c1cccc2ccccc12", "Hs-578T", "> 10 µM (inactive)"],
  ["O=C(Oc1c(Cl)cc(C2(c3cc(Cl)c(OC(=O)c4ccccc4)c(Cl)c3)CCCCC2)cc1Cl)c1ccccc1", "Hs-578T", "14.8 µM (inactive)"]
]}

# input For the molecule O=C(/C=C/c1cccc2ccccc12)c1ccccc1 , what GI50 is on record?
# output 26.3 µM (inactive)
